Listing of entries alongside the reported viability, T/C.
test system: 958667-338-R-J2-PDC tumor spheroids viability; assay: Anticancer human tumor 958667-338-R-J2-PDC patient-derived colon adenocarcinoma cell line growth inhibition [PI3K]; details: second compound 1 µM; first compound 0.0316 µM; hits give low values; spheroids with HUVEC and MSC;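 also: spheroids exposed to compounds for seven days before readout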
Form entry: value (%) — number only.

INSERT INTO assay_data (compound, target, observed) VALUES
  ('CC1(C)CCC(CN2CCN(c3ccc(C(=O)NS(=O)(=O)c4ccc(NCC5CCOCC5)c([N+](=O)[O-])c4)c(Oc4cnc5[nH]ccc5c4)c3)CC2)=C(c2ccc(Cl)cc2)C1 + CC(Nc1ncnc2nc[nH]c12)c1cc2cccc(Cl)c2c(=O)n1-c1ccccc1', '958667-338-R-J2-PDC tumor spheroids viability', 90.1);

Kindly review the next compound as well.
[in] I am curious: what viability, T/C value has been reported for CC1(C)CCC(CN2CCN(c3ccc(C(=O)NS(=O)(=O)c4ccc(NCC5CCOCC5)c([N+](=O)[O-])c4)c(Oc4cnc5[nH]ccc5c4)c3)CC2)=C(c2ccc(Cl)cc2)C1 + CC(Nc1ccc2c(c1)OCCn1cc(N3C(=O)OCC3C(F)F)nc1-2)C(N)=O ?
[out] 49
